# System: SF-539 CNS
# ASSAY EXPLANATION: NCI tumour cell line growth inhibition, 48 h
# TGI listing for each entry below

Answered cases to consult:
>>> meas_value("CSCc1ncc(-c2ccc(C(F)(F)F)cc2)c(NC2CCCCCC2)n1")
"> 10 µM"
>>> meas_value("COc1cc(N)c(Cl)cc1C(=O)N[C@@H]1CCN(CCCOc2ccc(F)cc2)C[C@@H]1OC")
"> 100 µM"
>>> meas_value("CCCCS(=O)(=O)c1cc(Nc2ccc(O)c3c2C(=O)c2ccccc2C3=O)ccc1C")
"> 100 µM"

I am curious: what TGI value has been reported for `C=CCCCN(C(=O)c1ccccc1)c1ccc(C(=O)OC)o1` ?
> 100 µM
